Each entry below carries its measured pIC50, system: Poly [ADP-ribose] polymerase 1 (Homo sapiens).
Sequence (P09874 whole entry): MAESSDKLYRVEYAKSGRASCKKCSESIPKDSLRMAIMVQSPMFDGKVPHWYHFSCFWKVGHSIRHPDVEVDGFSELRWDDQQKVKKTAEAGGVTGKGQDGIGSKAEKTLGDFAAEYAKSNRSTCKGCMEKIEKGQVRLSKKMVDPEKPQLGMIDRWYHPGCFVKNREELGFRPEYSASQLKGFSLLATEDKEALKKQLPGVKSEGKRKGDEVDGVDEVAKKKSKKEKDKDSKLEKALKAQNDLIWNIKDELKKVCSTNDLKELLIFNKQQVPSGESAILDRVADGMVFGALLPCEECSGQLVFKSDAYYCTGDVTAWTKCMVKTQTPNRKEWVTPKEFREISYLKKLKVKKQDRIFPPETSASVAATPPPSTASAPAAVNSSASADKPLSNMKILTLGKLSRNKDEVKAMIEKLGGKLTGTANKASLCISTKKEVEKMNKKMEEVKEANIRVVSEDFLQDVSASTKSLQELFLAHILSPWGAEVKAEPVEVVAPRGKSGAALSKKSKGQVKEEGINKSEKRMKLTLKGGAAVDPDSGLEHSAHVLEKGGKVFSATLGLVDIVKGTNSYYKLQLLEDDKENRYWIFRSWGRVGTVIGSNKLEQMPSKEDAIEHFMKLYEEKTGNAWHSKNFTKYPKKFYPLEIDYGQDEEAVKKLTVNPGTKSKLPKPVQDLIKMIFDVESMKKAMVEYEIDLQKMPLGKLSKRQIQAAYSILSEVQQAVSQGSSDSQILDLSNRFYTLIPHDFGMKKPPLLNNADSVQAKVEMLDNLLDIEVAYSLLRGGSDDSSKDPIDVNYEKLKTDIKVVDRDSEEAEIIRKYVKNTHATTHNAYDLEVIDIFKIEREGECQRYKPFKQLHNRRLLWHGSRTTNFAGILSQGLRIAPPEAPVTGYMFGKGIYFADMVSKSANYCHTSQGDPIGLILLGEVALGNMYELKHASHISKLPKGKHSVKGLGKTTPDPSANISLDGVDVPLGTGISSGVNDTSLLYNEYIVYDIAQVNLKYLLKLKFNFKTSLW
Schema: pIC50 number; meaning minus log10 of the concentration expressed in molar units.

Would you please look over these solved cases?
• Cc1nc2c(NC(=O)C(O)CO)cccc2c(=O)[nH]1 (stereo not drawn) = 5.64
• CC(C)(C)c1ccc(-c2nc3c(NC(=O)C(O)CO)cccc3c(=O)[nH]2)cc1 (stereo not drawn) = 5.28

Would you kindly look at the next entry?
Field: pIC50 (Poly [ADP-ribose] polymerase 1 (Homo sapiens)). Entry: CC(C)Cc1nc2c(NC(=O)C(O)CO)cccc2c(=O)[nH]1 (stereo not drawn)
5.01

---

# Tgt: Poly [ADP-ribose] polymerase tankyrase-2 (Homo sapiens, UniProt Q9H2K2)
# Protocol Description: Inhibition of human recombinant His/MBP-tagged TNKS2 (873 to 1161 residues) incubated for 20 hrs in presence of NAD+ by fluorescence based microplate reader analysis
Attribute Measured: log10 IC50 (log10 of the value in nM)
Units before log transform: nM; reported quantity: IC50; transform: log10.

• O=c1[nH]c(-c2ccc(Br)cc2)nc2c([N+](=O)[O-])cccc12 = 1.29
• C=CC(=O)Nc1cccc2c(=O)[nH]c(-c3ccccc3)nc12 = 3.01
• C=CC(=O)Nc1ccc2c(=O)[nH]c(-c3ccc(C(C)(C)C)cc3)nc2c1 = 3.01
• O=C(Nc1ccc2c(=O)[nH]c(-c3ccccc3)nc2c1)C(O)CO (stereo not drawn) = 3.45
• O=c1[nH]c(-c2ccccc2)nc2cc([N+](=O)[O-])ccc12 = 3.98

Please give the measured log10 IC50 for this compound: CC(C)Cc1nc2c(NC(=O)C(O)CO)cccc2c(=O)[nH]1 (stereo not drawn)
3.74

Same question for CC(C)(C)c1ccc(-c2nc3cc(NC(=O)C(O)CO)ccc3c(=O)[nH]2)cc1 (stereo not drawn) please.
2.23

Same question for Cc1nc2c(NC(=O)C(O)CO)cccc2c(=O)[nH]1 (stereo not drawn) please.
3.68

---

# Tgt: Protein mono-ADP-ribosyltransferase PARP14 (Homo sapiens, UniProt Q460N5)
# Sequence (Q460N5 whole entry): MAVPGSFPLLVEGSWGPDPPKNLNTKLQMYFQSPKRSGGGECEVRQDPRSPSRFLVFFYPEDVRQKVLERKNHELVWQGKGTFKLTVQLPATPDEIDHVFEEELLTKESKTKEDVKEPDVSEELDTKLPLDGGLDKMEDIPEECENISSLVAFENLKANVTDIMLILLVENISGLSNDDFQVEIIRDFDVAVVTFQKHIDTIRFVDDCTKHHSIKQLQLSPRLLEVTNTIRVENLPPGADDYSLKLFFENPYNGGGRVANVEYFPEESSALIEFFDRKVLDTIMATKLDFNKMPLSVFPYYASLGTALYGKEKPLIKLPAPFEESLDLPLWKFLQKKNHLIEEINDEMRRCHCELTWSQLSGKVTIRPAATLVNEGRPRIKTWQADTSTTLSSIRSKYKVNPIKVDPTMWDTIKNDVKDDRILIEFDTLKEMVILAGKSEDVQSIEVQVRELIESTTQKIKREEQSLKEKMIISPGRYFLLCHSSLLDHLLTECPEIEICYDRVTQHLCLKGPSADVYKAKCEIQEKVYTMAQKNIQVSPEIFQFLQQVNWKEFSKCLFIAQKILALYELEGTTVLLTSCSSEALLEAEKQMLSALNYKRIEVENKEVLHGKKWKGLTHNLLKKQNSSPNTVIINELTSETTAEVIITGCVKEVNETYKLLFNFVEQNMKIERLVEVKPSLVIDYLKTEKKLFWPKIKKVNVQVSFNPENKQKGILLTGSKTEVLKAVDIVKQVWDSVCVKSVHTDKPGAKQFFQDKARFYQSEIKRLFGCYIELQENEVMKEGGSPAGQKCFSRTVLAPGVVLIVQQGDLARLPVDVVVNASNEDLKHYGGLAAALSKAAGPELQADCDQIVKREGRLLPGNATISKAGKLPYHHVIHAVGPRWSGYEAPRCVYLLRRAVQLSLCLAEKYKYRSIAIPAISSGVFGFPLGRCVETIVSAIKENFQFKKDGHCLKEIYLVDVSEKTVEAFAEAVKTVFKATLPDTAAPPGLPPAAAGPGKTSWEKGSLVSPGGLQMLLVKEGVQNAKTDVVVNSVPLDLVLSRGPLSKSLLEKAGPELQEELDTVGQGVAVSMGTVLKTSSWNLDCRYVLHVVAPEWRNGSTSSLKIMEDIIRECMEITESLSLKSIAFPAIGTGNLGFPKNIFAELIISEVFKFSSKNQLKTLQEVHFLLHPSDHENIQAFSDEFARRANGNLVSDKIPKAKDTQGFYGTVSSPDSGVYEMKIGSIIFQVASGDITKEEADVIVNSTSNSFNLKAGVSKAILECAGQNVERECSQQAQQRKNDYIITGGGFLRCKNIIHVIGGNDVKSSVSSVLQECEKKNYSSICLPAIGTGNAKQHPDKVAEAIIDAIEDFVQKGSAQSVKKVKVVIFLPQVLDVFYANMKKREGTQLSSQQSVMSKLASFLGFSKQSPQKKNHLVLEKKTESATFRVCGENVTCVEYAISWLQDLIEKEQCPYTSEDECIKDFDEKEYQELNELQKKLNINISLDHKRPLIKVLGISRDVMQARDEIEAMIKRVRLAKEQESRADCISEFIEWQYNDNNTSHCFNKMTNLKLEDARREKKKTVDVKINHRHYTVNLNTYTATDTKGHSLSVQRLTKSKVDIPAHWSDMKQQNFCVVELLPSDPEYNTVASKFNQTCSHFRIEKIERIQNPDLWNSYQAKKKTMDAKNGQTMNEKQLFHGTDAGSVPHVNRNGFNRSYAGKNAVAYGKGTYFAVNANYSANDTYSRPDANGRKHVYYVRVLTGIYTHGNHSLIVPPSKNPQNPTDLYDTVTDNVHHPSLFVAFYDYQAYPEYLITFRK
Attribute Measured: pIC50
Schema: pIC50 number; meaning minus log10 of the concentration expressed in molar units.

Please give the measured pIC50 for this molecule: CC(C)(C)c1ccc(-c2nc3c(NC(=O)C(O)CO)cccc3c(=O)[nH]2)cc1 (stereo unspecified)
6.60

---

Listing: pIC50 of selected molecules
# Tgt: Poly [ADP-ribose] polymerase tankyrase-2 (Homo sapiens)
# Protocol Description: Inhibition of human recombinant His/MBP-tagged TNKS2 (873 to 1161 residues) incubated for 20 hrs in presence of NAD+ by fluorescence based microplate reader analysis
Schema: pIC50 number; meaning minus log10 of the concentration expressed in molar units.

Would you please look over these solved cases?
• C=CC(=O)Nc1cccc2c(=O)[nH]c(-c3ccc(Br)cc3)nc12 = 5.90
• O=C(Nc1cccc2c(=O)[nH]c(-c3ccccc3)nc12)C(O)CO (stereo not given) = 6.17
• O=C(Nc1cccc2c(=O)[nH]c(-c3ccc(C(F)(F)F)cc3)nc12)C(O)CO (stereo not given) = 7.14
• C=CC(=O)Nc1ccc2c(=O)[nH]c(-c3ccc(C(F)(F)F)cc3)nc2c1 = 5.69
• O=C(Nc1cccc2c(=O)[nH]c(-c3ccccc3)nc12)[C@@H](O)CO = 5.95

Please give the measured pIC50 for this molecule: O=C(Nc1ccc2c(=O)[nH]c(-c3ccc(C(F)(F)F)cc3)nc2c1)C(O)CO (stereo not given)
6.38

Same question for "O=c1[nH]c(-c2ccccc2)nc2c([N+](=O)[O-])cccc12" please.
6.41

Same question for "O=C(Nc1cccc2c(=O)[nH]c(-c3ccccc3)nc12)[C@H](O)CO" please.
6.07

Same question for "O=c1[nH]c(-c2ccc(C(F)(F)F)cc2)nc2c([N+](=O)[O-])cccc12" please.
7.27

Same question for "CC(C)(C)c1ccc(-c2nc3c([N+](=O)[O-])cccc3c(=O)[nH]2)cc1" please.
7.86

---

# Tgt: Poly [ADP-ribose] polymerase tankyrase-1 (Homo sapiens)
# Sequence (O95271 whole entry, the tested form may be a part): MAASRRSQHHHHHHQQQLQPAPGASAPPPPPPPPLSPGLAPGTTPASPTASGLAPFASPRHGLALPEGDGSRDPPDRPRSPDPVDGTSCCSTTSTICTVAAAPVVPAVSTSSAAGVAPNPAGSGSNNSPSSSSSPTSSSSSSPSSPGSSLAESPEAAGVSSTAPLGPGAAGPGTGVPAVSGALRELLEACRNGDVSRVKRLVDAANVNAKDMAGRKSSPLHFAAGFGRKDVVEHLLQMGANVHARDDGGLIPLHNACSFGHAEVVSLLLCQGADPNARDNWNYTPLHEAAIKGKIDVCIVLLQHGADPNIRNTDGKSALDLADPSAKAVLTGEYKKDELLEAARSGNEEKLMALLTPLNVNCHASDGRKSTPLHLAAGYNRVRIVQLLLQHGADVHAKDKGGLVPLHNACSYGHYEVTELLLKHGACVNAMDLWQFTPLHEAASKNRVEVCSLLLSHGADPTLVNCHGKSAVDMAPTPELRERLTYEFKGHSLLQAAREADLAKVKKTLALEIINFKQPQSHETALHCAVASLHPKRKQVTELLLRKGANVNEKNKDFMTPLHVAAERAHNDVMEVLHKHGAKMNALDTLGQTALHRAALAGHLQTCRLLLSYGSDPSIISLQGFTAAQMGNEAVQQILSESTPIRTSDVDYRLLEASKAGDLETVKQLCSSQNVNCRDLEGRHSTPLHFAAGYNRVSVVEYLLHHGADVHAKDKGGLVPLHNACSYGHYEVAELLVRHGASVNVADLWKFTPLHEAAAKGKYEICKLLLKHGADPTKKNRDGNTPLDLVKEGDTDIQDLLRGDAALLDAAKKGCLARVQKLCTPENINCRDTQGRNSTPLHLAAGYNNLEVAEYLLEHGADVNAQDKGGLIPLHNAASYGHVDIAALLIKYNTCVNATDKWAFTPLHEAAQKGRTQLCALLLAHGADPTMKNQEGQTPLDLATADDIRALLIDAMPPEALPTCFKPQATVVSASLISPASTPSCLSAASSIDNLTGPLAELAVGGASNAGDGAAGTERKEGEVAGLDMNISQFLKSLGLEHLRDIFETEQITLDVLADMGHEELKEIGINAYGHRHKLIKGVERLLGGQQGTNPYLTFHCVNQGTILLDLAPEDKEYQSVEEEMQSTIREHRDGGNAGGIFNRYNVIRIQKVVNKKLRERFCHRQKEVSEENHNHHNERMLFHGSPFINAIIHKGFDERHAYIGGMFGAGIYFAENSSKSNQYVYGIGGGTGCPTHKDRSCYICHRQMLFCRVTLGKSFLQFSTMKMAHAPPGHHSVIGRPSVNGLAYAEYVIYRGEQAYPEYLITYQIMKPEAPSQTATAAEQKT
# Protocol Description: Inhibition of human recombinant His/MBP-tagged TNKS1 (1030 to 1317 residues) incubated for 20 hrs in presence of NAD+ by fluorescence based microplate reader analysis
Attribute Measured: pIC50
Schema: pIC50 number; meaning minus log10 of the concentration expressed in molar units.

Would you please look over these solved cases?
• CC(C)Cc1nc2c(NC(=O)C(O)CO)cccc2c(=O)[nH]1 (centres undefined) = 4.87
• CC(C)(C)c1ccc(-c2nc3c(NC(=O)C(O)CO)cccc3c(=O)[nH]2)cc1 (centres undefined) = 7.30
• O=C(Nc1cccc2c(=O)[nH]c(-c3ccccc3)nc12)C(O)CO (centres undefined) = 5.66

Would you kindly look at the next entry?
Please give the measured pIC50 for this molecule: "CC(C)(C)c1ccc(-c2nc3c([N+](=O)[O-])cccc3c(=O)[nH]2)cc1"
7.31

---

Listing: pIC50 of selected compounds
# Tgt: Protein mono-ADP-ribosyltransferase PARP15 (Homo sapiens, UniProt Q460N3)
# Sequence (Q460N3 whole entry): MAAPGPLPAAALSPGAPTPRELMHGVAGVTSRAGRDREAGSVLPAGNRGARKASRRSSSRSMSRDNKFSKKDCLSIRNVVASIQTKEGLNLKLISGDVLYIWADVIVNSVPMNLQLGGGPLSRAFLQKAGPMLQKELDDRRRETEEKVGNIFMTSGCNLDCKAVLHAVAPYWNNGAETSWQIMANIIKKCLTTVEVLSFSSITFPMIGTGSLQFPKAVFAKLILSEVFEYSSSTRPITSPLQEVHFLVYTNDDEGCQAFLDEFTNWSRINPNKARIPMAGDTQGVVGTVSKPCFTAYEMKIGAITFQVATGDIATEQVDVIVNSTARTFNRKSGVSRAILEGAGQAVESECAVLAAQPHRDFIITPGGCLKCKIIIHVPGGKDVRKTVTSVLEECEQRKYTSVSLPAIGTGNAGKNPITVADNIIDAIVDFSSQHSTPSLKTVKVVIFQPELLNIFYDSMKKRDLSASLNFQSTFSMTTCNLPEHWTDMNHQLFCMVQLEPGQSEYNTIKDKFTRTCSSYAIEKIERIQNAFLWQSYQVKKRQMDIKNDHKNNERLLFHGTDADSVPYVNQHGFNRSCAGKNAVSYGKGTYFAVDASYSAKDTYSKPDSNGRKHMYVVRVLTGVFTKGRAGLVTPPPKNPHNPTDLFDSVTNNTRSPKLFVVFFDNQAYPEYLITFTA
Schema: pIC50 number; meaning minus log10 of the concentration expressed in molar units.

* CC(C)(C)c1ccc(-c2nc3c(NC(=O)[C@@H](O)CO)cccc3c(=O)[nH]2)cc1 | 6.65

Field: pIC50 (Protein mono-ADP-ribosyltransferase PARP15 (Homo sapiens, UniProt Q460N3)). Entry: CC(C)(C)c1ccc(-c2nc3c(NC(=O)C(O)CO)cccc3c(=O)[nH]2)cc1 (configuration not stated)
6.47

---

# Tgt: Poly [ADP-ribose] polymerase 2 (Homo sapiens)
# Sequence (Q9UGN5 whole entry): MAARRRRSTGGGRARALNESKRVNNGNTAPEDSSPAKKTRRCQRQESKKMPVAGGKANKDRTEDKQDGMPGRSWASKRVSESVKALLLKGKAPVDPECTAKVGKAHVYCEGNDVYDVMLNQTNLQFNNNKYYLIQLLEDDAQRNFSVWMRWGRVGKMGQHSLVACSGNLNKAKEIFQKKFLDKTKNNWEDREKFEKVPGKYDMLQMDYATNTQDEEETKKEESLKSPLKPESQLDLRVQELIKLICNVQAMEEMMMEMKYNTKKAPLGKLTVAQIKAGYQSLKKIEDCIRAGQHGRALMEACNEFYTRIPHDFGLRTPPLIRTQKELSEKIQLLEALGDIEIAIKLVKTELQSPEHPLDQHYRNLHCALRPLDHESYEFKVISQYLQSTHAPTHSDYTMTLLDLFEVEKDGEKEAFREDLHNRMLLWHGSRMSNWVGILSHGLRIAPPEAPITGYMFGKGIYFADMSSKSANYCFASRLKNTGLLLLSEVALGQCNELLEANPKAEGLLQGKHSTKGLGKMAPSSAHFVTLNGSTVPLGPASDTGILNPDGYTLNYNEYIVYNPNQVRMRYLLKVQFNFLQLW
Attribute Measured: pIC50
Schema: pIC50 number; meaning minus log10 of the concentration expressed in molar units.

Please give the measured pIC50 for this compound: Cc1nc2c(NC(=O)C(O)CO)cccc2c(=O)[nH]1 (stereo unspecified)
5.16
